- MEASUREMENT TARGET: DAT F326A (Homo sapiens, UniProt Q01959, F326A)
- Sequence (Q01959 57-620 F326A limits assumed): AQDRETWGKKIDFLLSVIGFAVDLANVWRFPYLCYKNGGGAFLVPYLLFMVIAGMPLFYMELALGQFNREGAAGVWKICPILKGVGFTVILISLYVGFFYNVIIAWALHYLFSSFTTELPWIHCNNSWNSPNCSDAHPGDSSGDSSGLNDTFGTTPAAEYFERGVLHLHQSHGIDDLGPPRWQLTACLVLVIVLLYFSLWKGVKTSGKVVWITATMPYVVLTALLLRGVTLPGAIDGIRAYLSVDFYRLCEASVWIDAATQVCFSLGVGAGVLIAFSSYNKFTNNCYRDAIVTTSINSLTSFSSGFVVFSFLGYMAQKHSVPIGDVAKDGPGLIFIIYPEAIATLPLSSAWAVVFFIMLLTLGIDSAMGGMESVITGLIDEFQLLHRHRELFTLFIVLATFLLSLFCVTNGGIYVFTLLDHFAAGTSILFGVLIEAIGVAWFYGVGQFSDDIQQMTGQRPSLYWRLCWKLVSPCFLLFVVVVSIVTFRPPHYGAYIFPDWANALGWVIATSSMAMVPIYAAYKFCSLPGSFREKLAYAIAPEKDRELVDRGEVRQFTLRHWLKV
- ASSAY PROTOCOL: [3H]Dopamine transport assay, DAT F326A mutant
- CONDITIONS USED: IC50 of [3H]dopamine uptake, F326A mutant of DAT; HEK-293F cells; n = 3
QUANTITY KIND: pIC50
On this scale, pIC50 is minus log10 of a concentration expressed in M (mol/L).

INSERT INTO measurements (compound_structure, quantity_kind, reported_value) VALUES
  ('c1ccc2cc([C@]34CNC[C@H]3C4)ccc2c1', 'pIC50', 5.68);

"N[C@@H]1CC[C@@H](c2ccc(Cl)c(Cl)c2)c2ccccc21" on DAT F326A (Homo sapiens, UniProt Q01959, F326A) gives pIC50 = 5.43

These entries and their values trace back to paper PMC12769732.
